Here the recorded protein stability index is given for each entry.
# Tested on: Saccharomyces cerevisiae
# Measurement notes: protein stability index of tFT-peptide fusion (C-terminal peptide) (PSI (0-1 scale)); higher = more stable (slower turnover)
# Measurement setup: genetic background: wild type; temperature: 30 C
The answer should be written as a number, with no unit following it.

Examples with their reported protein stability index follow.
SRFFSCCVFPSF: 0.766
RFVCVSVCPVRV: 0.487
SLFPAETPPKYR: 0.656
RRKGRLTAGWGR: 0.713
GLQPVGLYPFQL: 0.668

Prompt: Under Saccharomyces cerevisiae: protein stability index value of `FAKLDRVGACRW` ?
Completion: 0.764

Prompt: Request - read-out protein stability index | tested on Saccharomyces cerevisiae | sequence `PNLIFHHSFSFL`
Completion: 0.692

Prompt: Observed protein stability index on Saccharomyces cerevisiae for `SSGISEGFERGG` , please.
Completion: 0.581

Prompt: For the record `RLGAEYNWVNLS` , what value of protein stability index is listed for Saccharomyces cerevisiae?
Completion: 0.636

Prompt: Enter reported protein stability index observed with Saccharomyces cerevisiae for `PGAGGLSLVVRR`
Completion: 0.654

---

# System: Saccharomyces cerevisiae
# Measurement notes: protein stability index of tFT-peptide fusion (C-terminal peptide) (PSI (0-1 scale)); higher = more stable (slower turnover)
# Measurement setup: genetic background: wild type; temperature: 30 C
Parameter: protein stability index
Field format: numeric only.

Prompt: Provide the documented protein stability index with Saccharomyces cerevisiae as the system for `DCRFIIFYCVMV`
Completion: 0.457

Prompt: Notebook: pull reported protein stability index for Saccharomyces cerevisiae, entry `KEEAQKMKKIGE`
Completion: 0.752

Prompt: Identify the measured protein stability index of `IVGVLAVLVRPV` for Saccharomyces cerevisiae.
Completion: 0.466

Prompt: Which protein stability index is reported with Saccharomyces cerevisiae for this entry: `RPEKGLESGQRV` ?
Completion: 0.69

Prompt: I'm curious: which protein stability index was measured for `WWGRWGASVGRG` tested on Saccharomyces cerevisiae?
Completion: 0.686

---

# Test system: Saccharomyces cerevisiae
# Measurement notes: protein stability index of tFT-peptide fusion (C-terminal peptide) (PSI (0-1 scale)); higher = more stable (slower turnover)
# Measurement setup: genetic background: wild type; temperature: 30 C
Parameter: protein stability index
The answer should be written as a number, with no unit following it.

Sample answers from the record:
TKEEIMHGLQAK [RPN5 C-terminal 12 aa]: 0.728
LTARRKNRQQWE [COX23 C-terminal 12 aa]: 0.692
SHMILYQQQECY [YER181C C-terminal 12 aa]: 0.46
LRRYEEDLFCTF [IES2 C-terminal 12 aa]: 0.743
MMGFSNFATSKK [SNU23 C-terminal 12 aa]: 0.683
LQARLNTLKKQT [DID4 C-terminal 12 aa]: 0.604
DDDEEDEIVEVA [HGH1 C-terminal 12 aa]: 0.657
ETNFWTAALEYE [THI20 C-terminal 12 aa]: 0.759

Prompt: Need protein stability index, item QGALDSLLNGDV [DSK2 C-terminal 12 aa]
Completion: 0.701

Prompt: Which protein stability index reading was recorded for the sequence LIGGNTNDGLSK [CHA4 C-terminal 12 aa] ?
Completion: 0.722

Prompt: // lookup protein stability index for EQNAALGQGLGR [TIM9 C-terminal 12 aa]
Completion: 0.692

Prompt: // protein stability index lookup, key: ILDSFEEWSDEE [HDA1 C-terminal 12 aa]
Completion: 0.688
